# Tested on: ATP;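 also: ATP exposure 15 min at 22 °C before imaging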
# test: switch fluorescence ratio, 500 uM ATP over buffer (Cy3 cluster intensity, sum of 5 cycles each) (fold (ratio)); higher = stronger signal-on switching upon ATP binding; sequences stand for … in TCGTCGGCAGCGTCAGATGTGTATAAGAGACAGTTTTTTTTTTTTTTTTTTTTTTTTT…TC
# reported-conditions: aptamer strand: ATP DNA aptamer (quencher-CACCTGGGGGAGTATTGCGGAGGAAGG + anchor), 100 nM annealed; ATP concentration: 500 uM
Criterion: switch fluorescence ratio meeting or surpassing 1. Met: condition met. Not met: condition not met.

1) GCGGGGGTGT    condition met

Hi team, for AGGAGTTGGG , is the recorded switch fluorescence ratio at or above 1?
condition not met

Next sequence up: GCATCATTCA
condition met

Next entry: GAAACGGCGG
condition met

Moving on to the next sequence: TTTTCATGCC
condition met

Query CGGACGTGAC next
condition met

What about TTGCACGTTT ?
condition met

# iterate: TGGGGTGCAC
condition not met

// next record TTACCCCGAA
condition met
